# Experimental System: GST-BAI-1 Associated Protein PDZ domain 2 (Mus musculus (Mouse)), Q6RHR9
# Sequence (Q6RHR9 455-558): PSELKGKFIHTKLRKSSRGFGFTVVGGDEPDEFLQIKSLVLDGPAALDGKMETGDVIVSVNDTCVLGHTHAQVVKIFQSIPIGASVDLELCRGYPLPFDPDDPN
# Protocol: G assay titration, PDZ 1 ug/ml
Readout Name: Kd (nM)
# number only, unit nM dropped from output

What the record says about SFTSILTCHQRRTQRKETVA (modifications not checked) [GluR5-2 (rat)] : Kd is 300
